Give gamma_day5 for every item shown.
System: K562 CRISPRi cells
Test: Perturb-seq pooled growth measurement (sgRNA counts, growth phenotype γ, relative activity)
Format: cell-based, human
Conditions: pooled growth phenotype γ of the Perturb-seq sgRNA, day 5, K562 CRISPRi cells
Numbers only.

Solved cases below.
substance	assay_target	gamma_day5
HSPA5_ + _128003624.23-P1P2_04 (guide GAGCCGAGAAGGCGACGGTG; listed as DNA, chemistry not fully specified)	K562 CRISPRi cells	−0.7544
HSPA9_ −_137911079.23-P1P2_08 (guide GGAGCTGCTCGATGCGGTGG; listed as DNA, chemistry not fully specified)	K562 CRISPRi cells	−0.3582
GINS1_ −_25388381.23-P1P2_14 (guide GGACTAGAACGAAAGGAGCG; listed as DNA, chemistry not fully specified)	K562 CRISPRi cells	−0.3535

Batch of 6 substances: report gamma_day5 for each.
1. POLR1D_ + _28196016.23-P1_01 (guide GGGAAGCCAGGACCGACCGA; listed as DNA, chemistry not fully specified)
2. GATA1_ −_48645022.23-P1P2_00 (guide GTGAGCTTGCCACATCCCCA; listed as DNA, chemistry not fully specified)
3. GINS1_ −_25388381.23-P1P2_00 (guide GGACTAGAACGAAAGGAGTG; listed as DNA, chemistry not fully specified)
4. HSPA9_ −_137911079.23-P1P2_02 (guide GGAGTTGCGCGATGCGGTGG; listed as DNA, chemistry not fully specified)
5. CAD_ + _27440280.23-P1P2_06 (guide GGCTGGAGAGTAGCCGGGCG; listed as DNA, chemistry not fully specified)
6. BCR_ + _23523092.23-P1P2_04 (guide GCGCGCGGAGCCCGTCTCAG; listed as DNA, chemistry not fully specified)

**A:**
["−0.6945", "−0.9627", "−0.9993", "−0.6504", "−0.3975", "−0.7401"]

Batch of 2 substances: report gamma_day5 for each.
1. RPS14_ + _149829238.23-P1P2_04 (guide GAGGCCCGCGCGCGACAATC; listed as DNA, chemistry not fully specified)
2. RAN_ + _131356438.23-P1P2_04 (guide GGCGGTCGCGGCGCTTAGGG; listed as DNA, chemistry not fully specified)

**A:**
1: −0.3025; 2: −0.0859
